Reference for the values: ChEMBL document CHEMBL4483862

- System: Plasmodium berghei
- assay name: Luciferase/luciferin-expressing antifolate-resistant parasites were used to infect a culture of HepG2 cells that were pre-incubated with compounds. Infected hepatocytes emit light due to the luciferase reaction. Assay results are presented as the percent inhibition of light emission compared to control. […]
- Type: functional
- condition notes: sporozoite, FFLUC_HILL_SLOPE 2.08, FFLUC_R_SQUARED 0.224, HEPG2TOX_HILL_SLOPE 6.95, HEPG2TOX_R_SQUARED 0.413, PBLUC_HILL_SLOPE 13.7, PBLUC_R_SQUARED 0.727, read-out: LUCIFERASE INFECTION ASSAY - IC50
parameter: IC50 (µM)
Enter your answer as a number in µM; do not include the unit.

**Q:** Recorded IC50 for Cc1ccc2c(c1)NC(C)c1ccccc1O2 (stereo unspecified) with Plasmodium berghei, please?
**A:** 8.91

---

- System: Plasmodium berghei
- assay name: Luciferase/luciferin-expressing antifolate-resistant parasites were used to infect a culture of HepG2 cells that were pre-incubated with compounds. Infected hepatocytes emit light due to the luciferase reaction. Assay results are presented as the percent inhibition of light emission compared to control. […]
- Assay type: functional
- condition notes: sporozoite, HEPG2TOX_HILL_SLOPE 3.85, HEPG2TOX_R_SQUARED 0.996, PBLUC_HILL_SLOPE 11.4, PBLUC_R_SQUARED 0.664, read-out: LUCIFERASE INFECTION ASSAY - IC50
parameter: pIC50
Please note pIC50 is a logarithmic value: minus log10 of concentration in mol/L. Answer with that number alone.

**Q:** Entry CC(C)(C)c1cc(CCC(=O)NNC(=S)NC(=O)c2ccccc2)cc(C(C)(C)C)c1O has what pIC50?
**A:** 5.51

---

- System: Plasmodium berghei
- assay name: Luciferase/luciferin-expressing antifolate-resistant parasites were used to infect a culture of HepG2 cells that were pre-incubated with compounds. Infected hepatocytes emit light due to the luciferase reaction. Assay results are presented as the percent inhibition of light emission compared to control. […]
- Format: functional
- condition notes: sporozoite, PBLUC_HILL_SLOPE 16, PBLUC_R_SQUARED 0.272, read-out: LUCIFERASE INFECTION ASSAY - IC50
parameter: IC50 (µM)
Enter your answer as a number in µM; do not include the unit.

**Q:** Entry OCc1ccc(-c2cnc3cnc(-c4cccc(Cl)c4)cn23)cc1 has what IC50?
**A:** 9.56

---

- Test system: Plasmodium berghei
- assay name: Luciferase/luciferin-expressing antifolate-resistant parasites were used to infect a culture of HepG2 cells that were pre-incubated with compounds. Infected hepatocytes emit light due to the luciferase reaction. Assay results are presented as the percent inhibition of light emission compared to control. […]
- Type: functional
- condition notes: sporozoite, PBLUC_HILL_SLOPE 2, PBLUC_R_SQUARED 0.71, read-out: LUCIFERASE INFECTION ASSAY - IC50
parameter: IC50 (µM)
Enter your answer as a number in µM; do not include the unit.

**Q:** Entry Cc1ccc(NC2c3ccccc3-c3ccccc32)cc1 has what IC50?
**A:** 6.95

---

- Tested on: Plasmodium berghei
- assay name: Luciferase/luciferin-expressing antifolate-resistant parasites were used to infect a culture of HepG2 cells that were pre-incubated with compounds. Infected hepatocytes emit light due to the luciferase reaction. Assay results are presented as the percent inhibition of light emission compared to control. […]
- Format: functional
- condition notes: sporozoite, FFLUC_HILL_SLOPE 11.8, FFLUC_R_SQUARED 0.613, read-out: LUCIFERASE INFECTION ASSAY - IC50
pIC50: −log10 of the molar value.
parameter: pIC50

**Q:** Recorded pIC50 for Cc1ccc(C(=O)C(=O)Nc2cc(S(=O)(=O)N3CCCCC3)ccc2OC(C)C)cc1 with Plasmodium berghei, please?
**A:** < 5.00
